Some molecules, each annotated with its measured MaxP (maximal SAINT score).
# Study system: T1, nSR100 (Mus musculus, UniProt Q8BKA3)
# T1 construct: host or cells: mouse N2A cells
# T1 sequence (Q8BKA3 1-608): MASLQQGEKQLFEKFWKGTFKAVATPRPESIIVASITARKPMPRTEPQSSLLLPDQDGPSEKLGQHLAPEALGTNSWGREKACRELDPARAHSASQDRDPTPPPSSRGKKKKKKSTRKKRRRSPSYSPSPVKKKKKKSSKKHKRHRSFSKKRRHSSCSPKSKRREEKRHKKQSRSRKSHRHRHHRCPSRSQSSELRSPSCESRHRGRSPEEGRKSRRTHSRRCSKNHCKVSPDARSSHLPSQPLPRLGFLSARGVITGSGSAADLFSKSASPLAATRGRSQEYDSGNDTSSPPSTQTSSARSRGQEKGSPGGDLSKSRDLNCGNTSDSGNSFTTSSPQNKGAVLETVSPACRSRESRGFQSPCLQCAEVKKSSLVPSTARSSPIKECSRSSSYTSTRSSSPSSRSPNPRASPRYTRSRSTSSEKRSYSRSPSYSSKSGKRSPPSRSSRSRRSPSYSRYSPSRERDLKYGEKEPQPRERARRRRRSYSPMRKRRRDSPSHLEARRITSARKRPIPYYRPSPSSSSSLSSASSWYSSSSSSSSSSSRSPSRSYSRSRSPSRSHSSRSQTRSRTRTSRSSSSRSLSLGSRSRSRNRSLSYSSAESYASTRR
# Run description: AP-MS nSR100 interaction partners from mouse N2A cells (Table 5)
# Assay type: binding
# Condition context: bait Srrm4
Could you respond with only the numeric value?

Ywhaq (protein, UniProt P68254 1-245, looked up) 14-3-3 protein theta: MEKTELIQKAKLAEQAERYDDMATCMKAVTEQGAELSNEERNLLSVAYKNVVGGRRSAWRVISSIEQKTDTSDKKLQLIKDYREKVESELRSICTTVLELLDKYLIANATNPESKVFYLKMKGDYFRYLAEVACGDDRKQTIENSQGAYQEAFDISKKEMQPTHPIRLGLALNFSVFYYEILNNPELACTLAKTAFDEAIAELDTLNEDSYKDSTLIMQLLRDNLTLWTSDSAGEECDAAEGAEN : 1
Rnps1 (protein, UniProt Q99M28 1-305, looked up) RNA-binding protein with …: MDLSGVKKKSLLGVKENNKKSSTRAPSPTKRKDRSDEKSKDRSKDKGATKESSEKDRGRDKTRKRRSASSGSSSTRSRSSSTSSSGSSTSTGSSSGSSSSSASSRSGSSSTSRSSSSSSSSGSPSPSRRRHDNRRRSRSKSKPPKRDEKERKRRSPSPKPTKVHIGRLTRNVTKDHIMEIFSTYGKIKMIDMPVERMHPHLSKGYAYVEFENPDEAEKALKHMDGGQIDGQEITATAVLAPWPRPPPRRFSPPRRMLPPPPMWRRSPPRMRRRSRSPRRRSPVRRRSRSPGRRRHRSRSSSNSSR : 1

Incoming: Give the measured MaxP (maximal SAINT score) for Grpel1 (protein, UniProt Q99LP6 28-217, looked up) GrpE protein homolog 1, …: CTATKQKNNGQNLDEDLGHCEPKTDPPSADKTLLEEKAKLEEQLRETMEKYKRALADTENLRQRSQKLVEEAKLYGIQGFCKDLLEVADILEKATQSVPKEEISNNNPHLKSLYEGLVMTEVQIQKVFTKHGLLRLDPIGAKFDPYEHEALFHTPVEGKEPGTVALVSKVGYKLHGRTLRPALVGVVKDA
Outgoing: 0.98

Incoming: Give the measured MaxP (maximal SAINT score) for Snip1 (protein, UniProt Q8BIZ6 1-383, looked up) Smad nuclear-interacting …: MKAGKSERERSGRRRHRSGDALTTVVVKQERLSPEPVAHRRPDAPAASLSPPAAEPGHSGHRGSRARSPAKKKSKSSGRRSKSPRTKRSQSPHYPMVKVKQEREDHPRRGREDRQHREPSEQEHRRARNSERDRHRGHSRQGRSSDERPVSGQDRDRDSQNLQAQEEERDFHNARRREHRQQNESAGSEAQEVIPRPAGNRSKEVPVKEKPSFELSGALLEDTNTFRGVVIKYSEPPEARIPKKRWRLYPFKNDEVLPVMYIHRQSAYLLGRHRRIADIPIDHPSCSKQHAVFQYRLVEYTRADGTVGRRVKPYIIDLGSGNGTFLNNKRIEPQRYYELKEKDVLKFGFSSREYVLLHESSDTSELDRKEDEDDEEEEMVSDS
Outgoing: 1

Incoming: Give the measured MaxP (maximal SAINT score) for Cdc37 (protein, UniProt Q61081 1-379, looked up) Hsp90 co-chaperone Cdc37: MVDYSVWDHIEVSDDEDETHPNIDTASLFRWRHQARVERMEQFQKEKEELDRGCRECKRKVAECQRKLKELEVAESDGQVELERLRAEAQQLRKEERSWEQKLEDMRKKEKNMPWNVDTLSKDGFSKSMVNTKPEKAEEDSEEAREQKHKTFVEKYEKQIKHFGMLHRWDDSQKYLSDNVHLVCEETANYLVIWCIDLEVEEKCALMEQVAHQTMVMQFILELAKSLKVDPRACFRQFFTKIKTADHQYMEGFKYELEAFKERVRGRAKLRIEKAMKEYEEEERKKRLGPGGLDPVEVYESLPEELQKCFDVKDVQMLQDAISKMDPTDAKYHMQRCIDSGLWVPNSKSGEAKEGEEAGPGDPLLEAVPKAGNEKDVSA
Outgoing: 1

Incoming: Give the measured MaxP (maximal SAINT score) for Csnk2a2 (protein, UniProt O54833 1-350, looked up) Casein kinase II subunit …: MPGPAAGSRARVYAEVNSLRSREYWDYEAHVPSWGNQDDYQLVRKLGRGKYSEVFEAINITNNERVVVKILKPVKKKKIKREVKILENLRGGTNIIKLIDTVKDPVSKTPALVFEYINNTDFKQLYQILTDFDIRFYMYELLKALDYCHSKGIMHRDVKPHNVMIDHQQKKLRLIDWGLAEFYHPAQEYNVRVASRYFKGPELLVDYQMYDYSLDMWSLGCMLASMIFRKEPFFHGQDNYDQLVRIAKVLGTDELYGYLKKYHIDLDPHFNDILGQHSRKRWENFIHSENRHLVSPEALDLLDKLLRYDHQQRLTAKEAMEHPYFYPVVKEQSQPCAENTVLSSGLTAAR
Outgoing: 1

Incoming: Give the measured MaxP (maximal SAINT score) for Sap18 (protein, UniProt O55128 2-153, looked up) Histone deacetylase complex …: AVESRVTQEEIKKEPEKPIDREKTCPLLLRVFTTNNGRHHRMDEFSRGNVPSSELQIYTWMDATLKELTSLVKEVYPEARKKGTHFNFAIVFMDLKRPGYRVKEIGSTMSGRKGTDDSMTLQSQKFQIGDYLDIAITPPNRAPPSSGRMRPY
Outgoing: 1

Incoming: Give the measured MaxP (maximal SAINT score) for Luc7l (protein, UniProt Q9CYI4 1-371, looked up) Putative RNA-binding protein …: MSAQAQMRALLDQLMGTARDGDETRQRVKFTDDRVCKSHLLDCCPHDILAGTRMDLGECTKIHDLALRADYEIASKERDLFFELDAMDHLESFIAECDRRTELAKKRLAETQEEISAEVSAKAEKVHELNEEIGKLLAKAEQLGAEGNVDESQKILMEVEKVRAKKKEAEEEYRNSMPASSFQQQKLRVCEVCSAYLGLHDNDRRLADHFGGKLHLGFIQIREKLDQLRKTVAEKQEKRNQDRLRRREEREREERLGRRSGSRTRDRRRSRSRDRRRRRSRSTSRERRKFSRSRSRDRYRRHRSRSRSHSRGHRRASRDRSTKYKFSRERSLREESWEYGRNERGPTDWRLENSNGKTASRRSEEKEAGEI
Outgoing: 0.99
